The following molecules are listed with their measured viability, T/C values.
Tested on: 941728-121-R-J1-PDC complex spheroid viability
Assay: Anticancer human tumor 941728-121-R-J1-PDC patient-derived lung adenocarcinoma cell line growth inhibition [RAS]
Conditions: second compound 1 µM; first compound 0.0316 µM; stronger effect = lower value
observation-type: viability, T/C

molecule="C=CC(=O)Nc1cc(Nc2nccc(-c3cn(C)c4ccccc34)n2)c(OC)cc1N(C)CCN(C)C + C=CC(=O)N1CCN(c2nc(OCC3CCCN3C)nc3c(F)c(-c4nc(N)cc(C)c4C(F)(F)F)c(Cl)cc23)C(C)C1" readout_value=18.2%
molecule="NC1c2ccccc2OC12CCN(c1cnc3c(N4CCCc5ncccc54)n[nH]c3n1)CC2 (stereo not drawn) + C#Cc1c(F)ccc2cc(O)cc(-c3ncc4c(N5CC6CCC(C5)N6)nc(OCC56CCCN5CC(F)C6)nc4c3F)c12" readout_value=28.5%
molecule="CC(Nc1ccc2c(c1)OCCn1cc(N3C(=O)OCC3C(F)F)nc1-2)C(N)=O (stereo not drawn) + C#Cc1c(F)ccc2cc(O)cc(-c3ncc4c(N5CC6CCC(C5)N6)nc(OCC56CCCN5CC(F)C6)nc4c3F)c12" readout_value=33.8%
molecule="CCN1CCN(Cc2ccc(Nc3ncc(F)c(-c4cc(F)c5nc(C)n(C(C)C)c5c4)n3)nc2)CC1 + C=CC(=O)N1CCN(c2nc(OCC3CCCN3C)nc3c(F)c(-c4nc(N)cc(C)c4C(F)(F)F)c(Cl)cc23)C(C)C1" readout_value=20.6%
molecule="Cc1nc(N2CCC3(CC2)COC(C)C3N)c(CO)nc1Sc1ccnc(N)c1Cl (stereo not drawn) + C=CC(=O)N1CCN(c2nc(OCC3CCCN3C)nc3c(F)c(-c4nc(N)cc(C)c4C(F)(F)F)c(Cl)cc23)C(C)C1" readout_value=20.2%
molecule="CC(C)NCC(C(=O)N1CCN(c2ncnc3c2C(C)CC3O)CC1)c1ccc(Cl)cc1 (stereo not drawn) + C#Cc1c(F)ccc2cc(O)cc(-c3ncc4c(N5CC6CCC(C5)N6)nc(OCC56CCCN5CC(F)C6)nc4c3F)c12" readout_value=39.3%
molecule="Nc1ccn(C2OC(CO)C(O)C2(F)F)c(=O)n1 (stereo not drawn) + C#Cc1c(F)ccc2cc(O)cc(-c3ncc4c(N5CC6CCC(C5)N6)nc(OCC56CCCN5CC(F)C6)nc4c3F)c12" readout_value=31.6%
molecule="O=C(c1ccc(F)c(F)c1Nc1ccc(I)cc1F)N1CC(O)([C@@H]2CCCCN2)C1 + C=CC(=O)N1CCN(c2nc(OCC3CCCN3C)nc3c(F)c(-c4nc(N)cc(C)c4C(F)(F)F)c(Cl)cc23)C(C)C1" readout_value=15.3%

---

Listed here are compounds together with their documented viability, T/C.
System: 941728-121-R-J1-PDC complex spheroid viability
Experiment: Anticancer human tumor 941728-121-R-J1-PDC cell line growth inhibition [RAS];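 note: spheroids exposed to compounds for 7 days before readout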;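 for viability, T/C: 100% = DMSO vehicle control viability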
Details: second compound 0.03 µM; first compound 1 µM; stronger effect = lower value
observation-type: viability, T/C (%)

compound="C=CC(=O)N1CCN(c2nc(OCC3CCCN3C)nc3c(F)c(-c4nc(N)cc(C)c4C(F)(F)F)c(Cl)cc23)C(C)C1 (centres undefined) + CCn1c(-c2cccnc2C(C)OC)c2c3cc(ccc31)N1CCOC(CC(NC(=O)C(C(C)C)N(C)C(=O)C3(F)CCN(C(=O)C#CC(C)(C)N(C)C)CC3)C(=O)N3CCCC(N3)C(=O)OCC(C)(C)C2)C1" value_unit=% readout_value=23.6
compound="C[C@@H](NC(=O)c1ncnc(N)c1Cl)c1ncc(C(=O)Nc2cc(C(F)(F)F)c(Cl)cn2)s1 + CCn1c(-c2cccnc2C(C)OC)c2c3cc(ccc31)N1CCOC(CC(NC(=O)C(C(C)C)N(C)C(=O)C3(F)CCN(C(=O)C#CC(C)(C)N(C)C)CC3)C(=O)N3CCCC(N3)C(=O)OCC(C)(C)C2)C1" value_unit=% readout_value=23.1
compound="NC1c2ccccc2OC12CCN(c1cnc3c(N4CCCc5ncccc54)n[nH]c3n1)CC2 (centres undefined) + CCn1c(-c2cccnc2C(C)OC)c2c3cc(ccc31)N1CCOC(CC(NC(=O)C(C(C)C)N(C)C(=O)C3(F)CCN(C(=O)C#CC(C)(C)N(C)C)CC3)C(=O)N3CCCC(N3)C(=O)OCC(C)(C)C2)C1" value_unit=% readout_value=17.1
compound="CCN1CCN(Cc2ccc(Nc3ncc(F)c(-c4cc(F)c5nc(C)n(C(C)C)c5c4)n3)nc2)CC1 + CCn1c(-c2cccnc2C(C)OC)c2c3cc(ccc31)N1CCOC(CC(NC(=O)C(C(C)C)N(C)C(=O)C3(F)CCN(C(=O)C#CC(C)(C)N(C)C)CC3)C(=O)N3CCCC(N3)C(=O)OCC(C)(C)C2)C1" value_unit=% readout_value=17.5

---

Test system: 941728-121-R-J1-PDC complex spheroid viability
Assay: Anticancer human tumor 941728-121-R-J1-PDC cell line growth inhibition [RAS];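 note: spheroids exposed to compounds for 7 days before readout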
Conditions: curve of first compound; second compound 0.00316 µM
pIC50: −log10 of the molar value.
Below, each entry is listed alongside its reported pIC50.
observation-type: pIC50

compound="NC1c2ccccc2OC12CCN(c1cnc3c(N4CCCc5ncccc54)n[nH]c3n1)CC2 (stereo not drawn) + C=CC(=O)N1CCN(c2nc(OCC3CCCN3C)nc3c(F)c(-c4nc(N)cc(C)c4C(F)(F)F)c(Cl)cc23)C(C)C1" readout_value="> 7.50"
compound="CC(C)n1nc(-c2ccc3oc(N)nc3c2)c2c(N)ncnc21 + C=CC(=O)N1CCN(c2nc(OCC3CCCN3C)nc3c(F)c(-c4nc(N)cc(C)c4C(F)(F)F)c(Cl)cc23)C(C)C1" readout_value="> 9.50"
compound="CCc1c2c(nc3ccc(O)cc13)-c1cc3c(c(=O)n1C2)COC(=O)[C@]3(O)CC + C=CC(=O)N1CCN(c2nc(OCC3CCCN3C)nc3c(F)c(-c4nc(N)cc(C)c4C(F)(F)F)c(Cl)cc23)C(C)C1" readout_value="> 9.02"

---

Test system: 941728-121-R-J1-PDC complex spheroid viability
Experiment: Anticancer human tumor 941728-121-R-J1-PDC cell line growth inhibition [RAS];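 note: spheroids exposed to compounds for 7 days before readout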
Conditions: curve of first compound; second compound 0.003 µM
pIC50: −log10 of the molar value.
observation-type: pIC50

molecule="CC(Nc1ccc2c(c1)OCCn1cc(N3C(=O)OCC3C(F)F)nc1-2)C(N)=O (stereo not drawn) + CCn1c(-c2cccnc2C(C)OC)c2c3cc(ccc31)N1CCOC(CC(NC(=O)C(C(C)C)N(C)C(=O)C3(F)CCN(C(=O)C#CC(C)(C)N(C)C)CC3)C(=O)N3CCCC(N3)C(=O)OCC(C)(C)C2)C1" readout_value="> 7.50"
molecule="C=CC(=O)Nc1cc(Nc2nccc(-c3cn(C)c4ccccc34)n2)c(OC)cc1N(C)CCN(C)C + CCn1c(-c2cccnc2C(C)OC)c2c3cc(ccc31)N1CCOC(CC(NC(=O)C(C(C)C)N(C)C(=O)C3(F)CCN(C(=O)C#CC(C)(C)N(C)C)CC3)C(=O)N3CCCC(N3)C(=O)OCC(C)(C)C2)C1" readout_value=6.42
molecule="O=C(c1ccc(F)c(F)c1Nc1ccc(I)cc1F)N1CC(O)([C@@H]2CCCCN2)C1 + CCn1c(-c2cc(N3CCN(C)CC3)cnc2C(C)OC)c2c3cc(ccc31)-c1csc(n1)CC(NC(=O)C1CC1C)C(=O)N1CCCC(N1)C(=O)OCC(C)(C)C2" readout_value="> 8.50"

---

Tested on: 941728-121-R-J1-PDC complex spheroid viability
Assay: Anticancer human tumor 941728-121-R-J1-PDC cell line growth inhibition [RAS];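 note: spheroids exposed to compounds for 7 days before readout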;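 for viability, T/C: 100% = DMSO vehicle control viability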
Conditions: second compound 0.0316 µM; first compound 1 µM; stronger effect = lower value
Please assign 0.0 whenever viability, T/C is at or above 40%, and 1.0 whenever it is below.

compound="Cc1nc(N2CCC3(CC2)COC(C)C3N)c(CO)nc1Sc1ccnc(N)c1Cl (stereo not drawn) + C=CC(=O)N1CCN(c2nc(OCC3CCCN3C)nc3c(F)c(-c4nc(N)cc(C)c4C(F)(F)F)c(Cl)cc23)C(C)C1" group_label=1.0
compound="O=C(c1ccc(F)c(F)c1Nc1ccc(I)cc1F)N1CC(O)([C@@H]2CCCCN2)C1 + C=CC(=O)N1CCN(c2nc(OCC3CCCN3C)nc3c(F)c(-c4nc(N)cc(C)c4C(F)(F)F)c(Cl)cc23)C(C)C1" group_label=1.0
compound="CCN1CCN(Cc2ccc(Nc3ncc(F)c(-c4cc(F)c5nc(C)n(C(C)C)c5c4)n3)nc2)CC1 + C=CC(=O)N1CCN(c2nc(OCC3CCCN3C)nc3c(F)c(-c4nc(N)cc(C)c4C(F)(F)F)c(Cl)cc23)C(C)C1" group_label=1.0
compound="CC1(O)CCCC1n1c(=O)c(C(F)F)cc2cnc(NC3CCN(S(C)(=O)=O)CC3)nc21 (stereo not drawn) + C#Cc1c(F)ccc2cc(O)cc(-c3ncc4c(N5CC6CCC(C5)N6)nc(OCC56CCCN5CC(F)C6)nc4c3F)c12" group_label=0.0
compound="CCN1CCN(Cc2ccc(Nc3ncc(F)c(-c4cc(F)c5nc(C)n(C(C)C)c5c4)n3)nc2)CC1 + C#Cc1c(F)ccc2cc(O)cc(-c3ncc4c(N5CC6CCC(C5)N6)nc(OCC56CCCN5CC(F)C6)nc4c3F)c12" group_label=0.0
compound="Nc1ccn(C2OC(CO)C(O)C2(F)F)c(=O)n1 (stereo not drawn) + C#Cc1c(F)ccc2cc(O)cc(-c3ncc4c(N5CC6CCC(C5)N6)nc(OCC56CCCN5CC(F)C6)nc4c3F)c12" group_label=0.0
compound="C=CC(=O)Nc1cc(Nc2nccc(-c3cn(C)c4ccccc34)n2)c(OC)cc1N(C)CCN(C)C + C=CC(=O)N1CCN(c2nc(OCC3CCCN3C)nc3c(F)c(-c4nc(N)cc(C)c4C(F)(F)F)c(Cl)cc23)C(C)C1" group_label=1.0

Origin of the recorded values: PubChem BioAssay AID2060896
